Ref: the supplement of paper PMC10126150

Tested on: ATP;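 also: ATP exposure 15 min at 22 °C before imaging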
run-description: switch fluorescence ratio, 500 uM ATP over buffer (Cy3 cluster intensity, sum of 5 cycles each) (fold (ratio)); higher = stronger signal-on switching upon ATP binding; sequences stand for … in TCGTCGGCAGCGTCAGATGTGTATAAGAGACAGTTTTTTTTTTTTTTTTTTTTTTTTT…TC
study-conditions: aptamer strand: ATP DNA aptamer (quencher-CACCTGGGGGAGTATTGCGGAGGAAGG + anchor), 100 nM annealed; ATP concentration: 500 uM
Overview of recorded switch fluorescence ratio for various sequences
measurement-type: switch fluorescence ratio

chain-sequence: GGGTGATGGA
tested-system: ATP;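 also: ATP exposure 15 min at 22 °C before imaging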
val: 0.991
--
chain-sequence: TTGGGTGCTA
tested-system: ATP;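 also: ATP exposure 15 min at 22 °C before imaging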
val: 1.09
--
chain-sequence: GGCCTGTGTG
tested-system: ATP;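 also: ATP exposure 15 min at 22 °C before imaging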
val: 1.02
--
chain-sequence: GGGGATTAGG
tested-system: ATP;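 also: ATP exposure 15 min at 22 °C before imaging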
val: 0.988
--
chain-sequence: TTAAGCGAAG
tested-system: ATP;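 also: ATP exposure 15 min at 22 °C before imaging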
val: 0.953
--
chain-sequence: ATGTTCTCAA
tested-system: ATP;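 also: ATP exposure 15 min at 22 °C before imaging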
val: 0.998
--
chain-sequence: TGCAAGTACA
tested-system: ATP;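 also: ATP exposure 15 min at 22 °C before imaging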
val: 1.41
--
chain-sequence: TTCCAGAATT
tested-system: ATP;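 also: ATP exposure 15 min at 22 °C before imaging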
val: 0.993
--
chain-sequence: TTTGATCAAG
tested-system: ATP;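 also: ATP exposure 15 min at 22 °C before imaging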
val: 1.02
--
chain-sequence: TTTGGGCTTC
tested-system: ATP;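 also: ATP exposure 15 min at 22 °C before imaging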
val: 1.01
--
chain-sequence: TAACAATTGT
tested-system: ATP;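 also: ATP exposure 15 min at 22 °C before imaging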
val: 1.12
--
chain-sequence: TGTACGGGGT
tested-system: ATP;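 also: ATP exposure 15 min at 22 °C before imaging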
val: 1.01
--
chain-sequence: GCATGAGCTG
tested-system: ATP;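 also: ATP exposure 15 min at 22 °C before imaging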
val: 0.981
--
chain-sequence: ATGTGTATCG
tested-system: ATP;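 also: ATP exposure 15 min at 22 °C before imaging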
val: 0.969
--
chain-sequence: TAGTGAGTCC
tested-system: ATP;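 also: ATP exposure 15 min at 22 °C before imaging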
val: 1.08
--
chain-sequence: CGTTTGGAGC
tested-system: ATP;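 also: ATP exposure 15 min at 22 °C before imaging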
val: 0.968
--
chain-sequence: GTAATAAGGA
tested-system: ATP;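 also: ATP exposure 15 min at 22 °C before imaging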
val: 0.994
--
chain-sequence: AGTTTATAGA
tested-system: ATP;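 also: ATP exposure 15 min at 22 °C before imaging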
val: 1.01
--
chain-sequence: TGAGTGACG
tested-system: ATP;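 also: ATP exposure 15 min at 22 °C before imaging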
val: 1.01
--
chain-sequence: TTGCAATTTA
tested-system: ATP;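 also: ATP exposure 15 min at 22 °C before imaging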
val: 1.06
--
chain-sequence: TCCTTTAAGG
tested-system: ATP;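 also: ATP exposure 15 min at 22 °C before imaging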
val: 1.02

====

Each item that follows carries a reported switch fluorescence ratio.
System: ATP;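 also: ATP exposure 15 min at 22 °C before imaging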
run-description: switch fluorescence ratio, 500 uM ATP over buffer (Cy3 cluster intensity, sum of 5 cycles each) (fold (ratio)); higher = stronger signal-on switching upon ATP binding; sequences stand for … in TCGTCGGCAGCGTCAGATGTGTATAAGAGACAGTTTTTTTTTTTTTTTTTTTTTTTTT…TC
study-conditions: aptamer strand: ATP DNA aptamer (quencher-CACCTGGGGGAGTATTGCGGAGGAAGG + anchor), 100 nM annealed; ATP concentration: 500 uM
measurement-type: switch fluorescence ratio

chain-sequence: TAATGAGGCT
val: 1.03

chain-sequence: AACGGGGGGT
val: 0.997

chain-sequence: TCAAGAGTTA
val: 0.99

chain-sequence: TTATAGGGCC
val: 1

chain-sequence: ACACGATGCC
val: 1

chain-sequence: AGCGGGGATA
val: 1.05

chain-sequence: TAAGGGGGG
val: 1.01

chain-sequence: TATAGTAACT
val: 1.03

chain-sequence: TTATTTGGTC
val: 1

chain-sequence: TGTTTTTTAG
val: 1.01

chain-sequence: ATTTTACAGC
val: 1.03

chain-sequence: GGGCAGCTGG
val: 0.981

chain-sequence: TGACGGTGTC
val: 1.02

chain-sequence: TTCATGATTG
val: 0.999

chain-sequence: TTGACACTGG
val: 1.04

chain-sequence: TTGGGTGGGG
val: 1

chain-sequence: GTGAAGTATT
val: 0.983

chain-sequence: ATCACAATCA
val: 1.02

chain-sequence: ATCTTCTAAG
val: 1.02

chain-sequence: AAACTTAGCA
val: 1.02

chain-sequence: CAGTTGTGGT
val: 0.998

chain-sequence: GGGAGACCAA
val: 0.982

chain-sequence: TTCATGAATT
val: 0.996

chain-sequence: CTAGGGGATT
val: 1.02

chain-sequence: TTAGAGTAGT
val: 0.988

chain-sequence: TTTGGAAAAC
val: 0.985

chain-sequence: ACTGATGTAC
val: 1.09

chain-sequence: AGACTGTGGC
val: 0.991

chain-sequence: GCGGCTGTTA
val: 1.01

chain-sequence: GAGTTCAATG
val: 1.01

chain-sequence: GTAAGGAGAG
val: 1.02

chain-sequence: TAAAGGAATT
val: 1.05

chain-sequence: TTAGCATATT
val: 1.01

chain-sequence: GCTCTGACGG
val: 1.05

chain-sequence: GTAACGTTAG
val: 0.998

chain-sequence: AGGGGTCTGT
val: 1.01

chain-sequence: ATCACACATT
val: 1.02

chain-sequence: TACGGGTGCT
val: 1.16

chain-sequence: CCATTTGAGA
val: 0.998

chain-sequence: CCTTTTAGCG
val: 1.16

chain-sequence: TATAGAAAGT
val: 0.998

chain-sequence: AAGTTGGTGG
val: 0.987

chain-sequence: GGAGAGGGGC
val: 0.996

====

Form field: switch fluorescence ratio (one value per entry).
Test system: ATP;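 also: ATP exposure 15 min at 22 °C before imaging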
run-description: switch fluorescence ratio, 500 uM ATP over buffer (Cy3 cluster intensity, sum of 5 cycles each) (fold (ratio)); higher = stronger signal-on switching upon ATP binding; sequences stand for … in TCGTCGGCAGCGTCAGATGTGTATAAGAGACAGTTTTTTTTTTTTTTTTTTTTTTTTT…TC
study-conditions: aptamer strand: ATP DNA aptamer (quencher-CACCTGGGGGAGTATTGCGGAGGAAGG + anchor), 100 nM annealed; ATP concentration: 500 uM
measurement-type: switch fluorescence ratio

chain-sequence: TGTTTTGGGG
val: 0.998
--
chain-sequence: AAGGGACAAA
val: 1.04
--
chain-sequence: GGGTTGTTAC
val: 1.14
--
chain-sequence: TTAGAGTATG
val: 1.02
--
chain-sequence: GGGTAGAAAA
val: 1.01
--
chain-sequence: CGGGGGAGCC
val: 1.02
--
chain-sequence: GCGAGTGTGT
val: 0.984
--
chain-sequence: TTTGGGGAAG
val: 1.01
--
chain-sequence: AAAATGTTCC
val: 1.19
--
chain-sequence: ACCGTGTGTG
val: 0.995
--
chain-sequence: CAATTGTGGG
val: 0.996
--
chain-sequence: TCGGAAGTCA
val: 1.01
--
chain-sequence: GTTGATTGGG
val: 0.994
--
chain-sequence: AACGGGGAAG
val: 0.995
--
chain-sequence: GGACAGCGCG
val: 1
--
chain-sequence: TTCGTGCTTT
val: 0.995
--
chain-sequence: GGCAGTTTGG
val: 1.01
--
chain-sequence: GGGGGTACCT
val: 1.02
--
chain-sequence: TAAAACGGTG
val: 1.05
--
chain-sequence: GGTTGTTTTG
val: 1.02

====

Test system: ATP;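 also: ATP exposure 15 min at 22 °C before imaging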
run-description: switch fluorescence ratio, 500 uM ATP over buffer (Cy3 cluster intensity, sum of 5 cycles each) (fold (ratio)); higher = stronger signal-on switching upon ATP binding; sequences stand for … in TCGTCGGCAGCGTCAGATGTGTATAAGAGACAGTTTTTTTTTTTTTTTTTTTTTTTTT…TC
study-conditions: aptamer strand: ATP DNA aptamer (quencher-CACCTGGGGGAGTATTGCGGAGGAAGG + anchor), 100 nM annealed; ATP concentration: 500 uM
Reported switch fluorescence ratio values for a set of sequences

chain-sequence: AGGCTGGGGG
switch fluorescence ratio: 0.996
//
chain-sequence: ATATTCGCAC
switch fluorescence ratio: 1.19
//
chain-sequence: ATCGTACATA
switch fluorescence ratio: 1.12
//
chain-sequence: CGCGGGGTGC
switch fluorescence ratio: 1.06
//
chain-sequence: ACAGGTTGGT
switch fluorescence ratio: 1.03
//
chain-sequence: CGGCTGGACG
switch fluorescence ratio: 0.958
//
chain-sequence: TTGACTATCG
switch fluorescence ratio: 1
//
chain-sequence: CCGGTTGCAT
switch fluorescence ratio: 4.54
//
chain-sequence: GCGAAGGGGG
switch fluorescence ratio: 1.03
//
chain-sequence: GAGGGTTAAG
switch fluorescence ratio: 1.02
//
chain-sequence: GGCTAAAGCG
switch fluorescence ratio: 0.974
//
chain-sequence: AGTTGGATC
switch fluorescence ratio: 1.02
//
chain-sequence: GGGTAATGGC
switch fluorescence ratio: 0.971
//
chain-sequence: TTTGGTTAAT
switch fluorescence ratio: 0.959
//
chain-sequence: TTATTTATCG
switch fluorescence ratio: 0.987
//
chain-sequence: CGTAAGGGGA
switch fluorescence ratio: 1.05
//
chain-sequence: GATCCTGGGT
switch fluorescence ratio: 0.974
//
chain-sequence: ATTATTTACT
switch fluorescence ratio: 1.02
//
chain-sequence: AGTTGGAATT
switch fluorescence ratio: 0.979
//
chain-sequence: AATTCATTTT
switch fluorescence ratio: 1.03
//
chain-sequence: ACCCGTAATG
switch fluorescence ratio: 1.75
//
chain-sequence: TGGGCGCCGG
switch fluorescence ratio: 1
//
chain-sequence: TCATTAGCTT
switch fluorescence ratio: 0.991
//
chain-sequence: AGGCAAAAAT
switch fluorescence ratio: 1.01
//
chain-sequence: CGTATCCGTA
switch fluorescence ratio: 0.987
//
chain-sequence: AGAAAAAAGG
switch fluorescence ratio: 1.23
//
chain-sequence: AAAGTAGTGT
switch fluorescence ratio: 1.02
//
chain-sequence: GATGGTGTGG
switch fluorescence ratio: 0.997
//
chain-sequence: GATTTTACGA
switch fluorescence ratio: 0.994
//
chain-sequence: GGGTTATTGA
switch fluorescence ratio: 0.995
//
chain-sequence: CGGGGTGTTC
switch fluorescence ratio: 0.985
//
chain-sequence: GTTGAGGTCC
switch fluorescence ratio: 1.02
//
chain-sequence: TCGGTATTTG
switch fluorescence ratio: 0.967
//
chain-sequence: AGGATTGGTT
switch fluorescence ratio: 1
//
chain-sequence: CTTGGGATTA
switch fluorescence ratio: 1.03
//
chain-sequence: TAAAGTGGCT
switch fluorescence ratio: 0.985
//
chain-sequence: ACAGGGGCCA
switch fluorescence ratio: 0.999
//
chain-sequence: GGGACTAGTG
switch fluorescence ratio: 1
//
chain-sequence: CATATCGCCC
switch fluorescence ratio: 1.06
//
chain-sequence: ATAGGGGCTC
switch fluorescence ratio: 0.988
//
chain-sequence: TGGTCAACTA
switch fluorescence ratio: 1
//
chain-sequence: TAATGAGGTG
switch fluorescence ratio: 1.04
//
chain-sequence: TGGGTTTCAG
switch fluorescence ratio: 0.996
//
chain-sequence: ATTAAACAG
switch fluorescence ratio: 1.05
//
chain-sequence: TACGGGATGT
switch fluorescence ratio: 1.05
//
chain-sequence: CTTTTTGGAC
switch fluorescence ratio: 0.994
//
chain-sequence: TATAGGGGGA
switch fluorescence ratio: 1.04
//
chain-sequence: AAGATGCTTA
switch fluorescence ratio: 0.986
//
chain-sequence: TGCAAGTGGT
switch fluorescence ratio: 1.54
//
chain-sequence: CAAAGGAGGC
switch fluorescence ratio: 1.01
//
chain-sequence: CAAGGGTATG
switch fluorescence ratio: 1.03
//
chain-sequence: TAGAGGGATG
switch fluorescence ratio: 0.989
//
chain-sequence: CGTATGGTTA
switch fluorescence ratio: 1.02
//
chain-sequence: GAGTGTTTTG
switch fluorescence ratio: 0.996
//
chain-sequence: CGGTCACTGT
switch fluorescence ratio: 1.03
//
chain-sequence: GCTTGGGTTC
switch fluorescence ratio: 1
//
chain-sequence: TAAGGGGATC
switch fluorescence ratio: 0.987
//
chain-sequence: GATAGTCGTG
switch fluorescence ratio: 0.994
//
chain-sequence: ATCGGGTAAG
switch fluorescence ratio: 1.01
//
chain-sequence: TTGTACGCCC
switch fluorescence ratio: 1.24
//
chain-sequence: GGGCGCGTTT
switch fluorescence ratio: 0.962
//
chain-sequence: AGGATGTAAA
switch fluorescence ratio: 1.03
//
chain-sequence: AATATACTTT
switch fluorescence ratio: 1.04
//
chain-sequence: GGAGTGTTGG
switch fluorescence ratio: 1
//
chain-sequence: GAGCTGAGCG
switch fluorescence ratio: 0.996
//
chain-sequence: TTTGGAAGCC
switch fluorescence ratio: 1
//
chain-sequence: ACTAACTAAT
switch fluorescence ratio: 1.06
//
chain-sequence: TGGGAAGGTG
switch fluorescence ratio: 1.7
//
chain-sequence: TTGGGGCCGG
switch fluorescence ratio: 1
//
chain-sequence: TTAGAAGGTT
switch fluorescence ratio: 1
//
chain-sequence: CTCATCGTTC
switch fluorescence ratio: 0.996
//
chain-sequence: CAGATCAAGT
switch fluorescence ratio: 1.02
//
chain-sequence: ATGATGGCTT
switch fluorescence ratio: 1.01
//
chain-sequence: GAAGAGAGGT
switch fluorescence ratio: 0.99
//
chain-sequence: TTACGAGATT
switch fluorescence ratio: 1.01
//
chain-sequence: GGATAGGATT
switch fluorescence ratio: 1.03
//
chain-sequence: GGTCCAAGAT
switch fluorescence ratio: 1
//
chain-sequence: GGATGGTTGG
switch fluorescence ratio: 1.01
//
chain-sequence: CGTAAATGTG
switch fluorescence ratio: 0.967
//
chain-sequence: CCTAGAGAGG
switch fluorescence ratio: 1.03
//
chain-sequence: TGTTGAGGCG
switch fluorescence ratio: 0.981
//
chain-sequence: TTAAACGTTT
switch fluorescence ratio: 1.02
//
chain-sequence: GGATATAGCC
switch fluorescence ratio: 0.994
//
chain-sequence: CTATCGGGTA
switch fluorescence ratio: 0.997
//
chain-sequence: GTTGATTTAT
switch fluorescence ratio: 0.983
//
chain-sequence: CGTAAGCGAG
switch fluorescence ratio: 1.03
